# Tgt: human CD33 variant R122G (human, UniProt P20138 18-364)
# Sequence (P20138 18-364 R122G limits assumed): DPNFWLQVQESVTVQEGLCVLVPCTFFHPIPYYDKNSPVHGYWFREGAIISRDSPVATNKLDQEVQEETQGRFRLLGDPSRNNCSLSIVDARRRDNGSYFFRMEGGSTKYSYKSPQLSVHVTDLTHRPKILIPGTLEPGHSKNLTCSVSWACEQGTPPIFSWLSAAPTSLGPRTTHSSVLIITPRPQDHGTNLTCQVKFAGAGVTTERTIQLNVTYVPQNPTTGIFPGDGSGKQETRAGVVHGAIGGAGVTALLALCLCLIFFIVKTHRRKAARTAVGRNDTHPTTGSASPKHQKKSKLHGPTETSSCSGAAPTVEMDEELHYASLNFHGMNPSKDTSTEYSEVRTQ
# Test Protocol: flow cytometry, IgG on cells expressing the mutant

Binder	Mean % WT Binding
Refmab #4 (antibody, human IgG1, V domains shown, Tested in IgG format; human IgG1 Fc silent (PG-LALA)) VH: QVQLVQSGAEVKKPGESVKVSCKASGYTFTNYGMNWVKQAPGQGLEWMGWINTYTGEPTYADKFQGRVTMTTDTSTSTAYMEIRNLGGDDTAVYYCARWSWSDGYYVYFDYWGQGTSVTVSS VL: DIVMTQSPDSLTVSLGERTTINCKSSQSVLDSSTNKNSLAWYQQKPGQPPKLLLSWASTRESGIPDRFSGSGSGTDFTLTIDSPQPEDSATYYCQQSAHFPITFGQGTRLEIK	91.3 % of WT

Cited source for all entries: patent US20260242735A1
